Taken from ChEMBL document CHEMBL5058564.

- Tested on: Fibroblast
- protocol-notes: Incucyte cell viability with human fibroblast; also: unitless GR value; below 1 slowed growth and below 0 cell loss
- Assay type: toxicity, cell-based
- test-settings: 12 h, 10 µM, compound concentration 10 uM, replicate number 1, timepoint 12 hours
Please assign a class to every record based on measured Growth Rate, with ranges low group (below 0.02), middle group (0.02 to below 0.3), high group (0.3 or more)

compound: CCOC(=O)c1c(/C(C#N)=C\N)c2ccc(Cl)c(Cl)c2n1C
target-of-assay: Fibroblast
class-name: high group
--
compound: CN(C)C/C=C/C(=O)Nc1ccc(C(=O)N2CCCC(Nc3ncc(Cl)c(-c4c[nH]c5ccccc45)n3)C2)cc1 (centres undefined)
target-of-assay: Fibroblast
class-name: low group
--
compound: CCCN(CCC)CCc1cccc2c1CC(=O)N2.Cl [ROPINIROLE HYDROCHLORIDE]
target-of-assay: Fibroblast
class-name: high group
--
compound: CC[C@@H](C)Nc1nc(C)nc2c(-c3ccc(OC)nc3C)c(C)nn12
target-of-assay: Fibroblast
class-name: low group
--
compound: O=C(O)c1cc2ccccc2c(Cc2c(O)c(C(=O)O)cc3ccccc23)c1O
target-of-assay: Fibroblast
class-name: high group
--
compound: CNc1nc(NCc2ncccn2)c2c(-c3ccc4ncccc4c3)c[nH]c2n1
target-of-assay: Fibroblast
class-name: high group
--
compound: Fc1cccc(/C=N/N=C/c2cccc(F)c2)c1
target-of-assay: Fibroblast
class-name: high group
--
compound: CCOc1c2c(c(OCC)c3ncccc13)CN(c1ccc(CS(=O)(=O)NC(=O)Cc3ccccc3OC)cc1C)C2=O
target-of-assay: Fibroblast
class-name: high group
--
compound: CC(F)(F)CN1CCOc2c(nn(-c3ccccc3Cl)c2-c2ccc(Cl)cc2)C1=O
target-of-assay: Fibroblast
class-name: low group
--
compound: CN(C)C(=O)Cn1cc(-c2ccc(-c3cncc4ccccc34)cc2)cn1
target-of-assay: Fibroblast
class-name: middle group
--
compound: CCCCOCCOc1nc(-c2ccc(C(=O)O)c(F)c2)sc1C
target-of-assay: Fibroblast
class-name: middle group
--
compound: CN[C@@H](C)C(=O)N[C@H](C(=O)N1CCC[C@H]1C(=O)Nc1snnc1-c1ccccc1)C1CCCCC1
target-of-assay: Fibroblast
class-name: low group
--
compound: C(#Cc1cccc(CN2CCOCC2)c1)CCN1CCCCC1
target-of-assay: Fibroblast
class-name: middle group
--
compound: COc1ccc(S(=O)(=O)N2C(=O)[C@@](c3ccccc3OC)(N3C[C@H](O)C[C@H]3C(=O)N(C)C)c3cc(Cl)ccc32)c(OC)c1
target-of-assay: Fibroblast
class-name: middle group
--
compound: Cc1ccccc1N1CCN(CCc2nnc3n2CCCC3)CC1.Cl [DAPIPRAZOLE HYDROCHLORIDE]
target-of-assay: Fibroblast
class-name: high group
--
compound: OCCCNc1cc(-c2ccnc(Nc3cccc(Cl)c3)n2)ccn1
target-of-assay: Fibroblast
class-name: low group
--
compound: CSc1ccccc1N1CCN(CCCCCC(=O)NC2CCCc3ccccc32)CC1.Cl (centres undefined)
target-of-assay: Fibroblast
class-name: high group
--
compound: CC[C@H]1CN2CCc3cc(OC)c(OC)cc3[C@@H]2C[C@@H]1C[C@H]1NCCc2cc(OC)c(OC)cc21
target-of-assay: Fibroblast
class-name: low group
